Ref: the NIST ThermoML archive (doi:10.1016/j.jct.2017.08.032)

For each entry below, report its viscosity value.
# EXPERIMENTAL_CONDITIONS: 343.15 K; 101.33 kPa; Liquid; Falling or rolling sphere viscometry
Answers are plain numbers, in mPa·s.

These solved cases illustrate the format of a correct answer.
> print(dat)
                                   compound  readout.label  data.value
1  CCCCn1cc[n+](C)c1.F[P-](F)(F)(F)(F)F [1-butyl-3-methylimidazolium hexafluorophosphate]      viscosity       32.67
2  CCCC[n+]1ccn(C)c1.O=S(=O)([N-]S(=O)(=O)C(F)(F)F)C(F)(F)F      viscosity       11.22
3  CCCCn1cc[n+](C)c1.CCOS(=O)(=O)[O-] [1-butyl-3-methyl-1H-imidazolium ethyl sulfate]      viscosity       33.67
4  CCn1cc[n+](C)c1.O=S(=O)([N-]S(=O)(=O)C(F)(F)F)C(F)(F)F      viscosity        9.57

stdin: If you can, please state the reported viscosity value of CCCCn1cc[n+](C)c1.O=S(=O)([O-])C(F)(F)F [1-butyl-3-methylimidazolium trifluoromethanesulfonate] .
stdout: 17.24

* * *

For each entry below, report its mass density value.
# EXPERIMENTAL_CONDITIONS: 333.15 K; 101.33 kPa; Liquid; Vibrating tube method
Give bare numbers, in kg/m3.

> print(dat)
                                   compound  readout.label  data.value
1  CCCC[n+]1ccn(C)c1.O=S(=O)([N-]S(=O)(=O)C(F)(F)F)C(F)(F)F   mass density        1399
2  CCn1cc[n+](C)c1.O=S(=O)([N-]S(=O)(=O)C(F)(F)F)C(F)(F)F   mass density        1483
3  CCCCn1cc[n+](C)c1.O=S(=O)([O-])C(F)(F)F [1-butyl-3-methylimidazolium trifluoromethanesulfonate]   mass density        1270
4  CCCCn1cc[n+](C)c1.F[P-](F)(F)(F)(F)F [1-butyl-3-methylimidazolium hexafluorophosphate]   mass density        1339

# context switch: different compound, same mass density
stdin: If you can, please state the reported mass density value of CCCCn1cc[n+](C)c1.CCOS(=O)(=O)[O-] [1-butyl-3-methyl-1H-imidazolium ethyl sulfate] .
stdout: 1160

* * *

For each entry below, report its mass density value.
# EXPERIMENTAL_CONDITIONS: 293.15 K; 101.33 kPa; Liquid; Vibrating tube method
Numbers only, in kg/m3.

Items follow; give mass density for each.
1. CCCCn1cc[n+](C)c1.CCOS(=O)(=O)[O-] [1-butyl-3-methyl-1H-imidazolium ethyl sulfate]
2. CCCC[n+]1ccn(C)c1.O=S(=O)([N-]S(=O)(=O)C(F)(F)F)C(F)(F)F
3. CCCCn1cc[n+](C)c1.F[P-](F)(F)(F)(F)F [1-butyl-3-methylimidazolium hexafluorophosphate]

stdout:
1: 1186; 2: 1438; 3: 1372

Items follow; give mass density for each.
1. CCn1cc[n+](C)c1.O=S(=O)([N-]S(=O)(=O)C(F)(F)F)C(F)(F)F
2. CCCCn1cc[n+](C)c1.O=S(=O)([O-])C(F)(F)F [1-butyl-3-methylimidazolium trifluoromethanesulfonate]

stdout:
1521
1301

* * *

# EXPERIMENTAL_CONDITIONS: 343.15 K; 101.33 kPa; Liquid; Vibrating tube method
For each entry below, report its mass density value.
Give bare numbers, in kg/m3.

These solved cases illustrate the format of a correct answer.
> print(dat)
                                   molecule  readout.label   unit  data.value
1  CCCCn1cc[n+](C)c1.CCOS(=O)(=O)[O-] [1-butyl-3-methyl-1H-imidazolium ethyl sulfate]   mass density  kg/m3        1153
2  CCCCn1cc[n+](C)c1.O=S(=O)([O-])C(F)(F)F [1-butyl-3-methylimidazolium trifluoromethanesulfonate]   mass density  kg/m3        1262
3  CCCC[n+]1ccn(C)c1.O=S(=O)([N-]S(=O)(=O)C(F)(F)F)C(F)(F)F   mass density  kg/m3        1390
4  CCn1cc[n+](C)c1.O=S(=O)([N-]S(=O)(=O)C(F)(F)F)C(F)(F)F   mass density  kg/m3        1474

# context switch: different molecule, same mass density
stdin: If you can, please state the reported mass density value of CCCCn1cc[n+](C)c1.F[P-](F)(F)(F)(F)F [1-butyl-3-methylimidazolium hexafluorophosphate] .
stdout: 1332

* * *

For each entry below, report its viscosity value.
# EXPERIMENTAL_CONDITIONS: 353.15 K; 101.33 kPa; Liquid; Falling or rolling sphere viscometry
Give bare numbers, in mPa·s.

Items follow; give viscosity for each.
1. CCn1cc[n+](C)c1.O=S(=O)([N-]S(=O)(=O)C(F)(F)F)C(F)(F)F
2. CCCC[n+]1ccn(C)c1.O=S(=O)([N-]S(=O)(=O)C(F)(F)F)C(F)(F)F
3. CCCCn1cc[n+](C)c1.F[P-](F)(F)(F)(F)F [1-butyl-3-methylimidazolium hexafluorophosphate]
4. CCCCn1cc[n+](C)c1.O=S(=O)([O-])C(F)(F)F [1-butyl-3-methylimidazolium trifluoromethanesulfonate]
5. CCCCn1cc[n+](C)c1.CCOS(=O)(=O)[O-] [1-butyl-3-methyl-1H-imidazolium ethyl sulfate]

stdout:
1. 7.9
2. 8.99
3. 23.85
4. 13.48
5. 24.88

* * *

# EXPERIMENTAL_CONDITIONS: 283.15 K; 101.33 kPa; Liquid; Vibrating tube method
READOUT_LABEL: mass density (kg/m3)
Numbers only, in kg/m3.

These solved cases illustrate the format of a correct answer.
> print(dat)
                                   molecule  data.value
1  CCCCn1cc[n+](C)c1.CCOS(=O)(=O)[O-] [1-butyl-3-methyl-1H-imidazolium ethyl sulfate]        1193
2  CCCC[n+]1ccn(C)c1.O=S(=O)([N-]S(=O)(=O)C(F)(F)F)C(F)(F)F        1448

Items follow; give mass density for each.
1. CCn1cc[n+](C)c1.O=S(=O)([N-]S(=O)(=O)C(F)(F)F)C(F)(F)F
2. CCCCn1cc[n+](C)c1.O=S(=O)([O-])C(F)(F)F [1-butyl-3-methylimidazolium trifluoromethanesulfonate]
3. CCCCn1cc[n+](C)c1.F[P-](F)(F)(F)(F)F [1-butyl-3-methylimidazolium hexafluorophosphate]

stdout:
1. 1531
2. 1309
3. 1380

* * *

# EXPERIMENTAL_CONDITIONS: 303.15 K; 101.33 kPa; Liquid; Falling or rolling sphere viscometry
READOUT_LABEL: viscosity (mPa·s)
Give bare numbers, in mPa·s.

These solved cases illustrate the format of a correct answer.
> print(dat)
                                   compound  data.value
1  CCCCn1cc[n+](C)c1.O=S(=O)([O-])C(F)(F)F [1-butyl-3-methylimidazolium trifluoromethanesulfonate]       66.58
2  CCCCn1cc[n+](C)c1.F[P-](F)(F)(F)(F)F [1-butyl-3-methylimidazolium hexafluorophosphate]       185.1
3  CCCCn1cc[n+](C)c1.CCOS(=O)(=O)[O-] [1-butyl-3-methyl-1H-imidazolium ethyl sulfate]         181
4  CCCC[n+]1ccn(C)c1.O=S(=O)([N-]S(=O)(=O)C(F)(F)F)C(F)(F)F       35.88

# context switch: different compound, same viscosity
stdin: If you can, please state the reported viscosity value of "CCn1cc[n+](C)c1.O=S(=O)([N-]S(=O)(=O)C(F)(F)F)C(F)(F)F" .
stdout: 26.55

* * *

# EXPERIMENTAL_CONDITIONS: 283.15 K; 101.33 kPa; Liquid; Falling or rolling sphere viscometry
For each entry below, report its viscosity value.
One number for each entry, in mPa·s.

> print(dat)
                                   compound  readout.label   unit  data.value
1  CCn1cc[n+](C)c1.O=S(=O)([N-]S(=O)(=O)C(F)(F)F)C(F)(F)F      viscosity  mPa·s       56.17
2  CCCCn1cc[n+](C)c1.F[P-](F)(F)(F)(F)F [1-butyl-3-methylimidazolium hexafluorophosphate]      viscosity  mPa·s       779.5
3  CCCCn1cc[n+](C)c1.CCOS(=O)(=O)[O-] [1-butyl-3-methyl-1H-imidazolium ethyl sulfate]      viscosity  mPa·s       672.1
4  CCCCn1cc[n+](C)c1.O=S(=O)([O-])C(F)(F)F [1-butyl-3-methylimidazolium trifluoromethanesulfonate]      viscosity  mPa·s       183.3

# context switch: different compound, same viscosity
stdin: If you can, please state the reported viscosity value of "CCCC[n+]1ccn(C)c1.O=S(=O)([N-]S(=O)(=O)C(F)(F)F)C(F)(F)F" .
stdout: 88.06
